Target: recombinant rat mGluR5 (Rattus norvegicus)
Construct: expressed in transfected cells
Sequence (P31424 21-1203): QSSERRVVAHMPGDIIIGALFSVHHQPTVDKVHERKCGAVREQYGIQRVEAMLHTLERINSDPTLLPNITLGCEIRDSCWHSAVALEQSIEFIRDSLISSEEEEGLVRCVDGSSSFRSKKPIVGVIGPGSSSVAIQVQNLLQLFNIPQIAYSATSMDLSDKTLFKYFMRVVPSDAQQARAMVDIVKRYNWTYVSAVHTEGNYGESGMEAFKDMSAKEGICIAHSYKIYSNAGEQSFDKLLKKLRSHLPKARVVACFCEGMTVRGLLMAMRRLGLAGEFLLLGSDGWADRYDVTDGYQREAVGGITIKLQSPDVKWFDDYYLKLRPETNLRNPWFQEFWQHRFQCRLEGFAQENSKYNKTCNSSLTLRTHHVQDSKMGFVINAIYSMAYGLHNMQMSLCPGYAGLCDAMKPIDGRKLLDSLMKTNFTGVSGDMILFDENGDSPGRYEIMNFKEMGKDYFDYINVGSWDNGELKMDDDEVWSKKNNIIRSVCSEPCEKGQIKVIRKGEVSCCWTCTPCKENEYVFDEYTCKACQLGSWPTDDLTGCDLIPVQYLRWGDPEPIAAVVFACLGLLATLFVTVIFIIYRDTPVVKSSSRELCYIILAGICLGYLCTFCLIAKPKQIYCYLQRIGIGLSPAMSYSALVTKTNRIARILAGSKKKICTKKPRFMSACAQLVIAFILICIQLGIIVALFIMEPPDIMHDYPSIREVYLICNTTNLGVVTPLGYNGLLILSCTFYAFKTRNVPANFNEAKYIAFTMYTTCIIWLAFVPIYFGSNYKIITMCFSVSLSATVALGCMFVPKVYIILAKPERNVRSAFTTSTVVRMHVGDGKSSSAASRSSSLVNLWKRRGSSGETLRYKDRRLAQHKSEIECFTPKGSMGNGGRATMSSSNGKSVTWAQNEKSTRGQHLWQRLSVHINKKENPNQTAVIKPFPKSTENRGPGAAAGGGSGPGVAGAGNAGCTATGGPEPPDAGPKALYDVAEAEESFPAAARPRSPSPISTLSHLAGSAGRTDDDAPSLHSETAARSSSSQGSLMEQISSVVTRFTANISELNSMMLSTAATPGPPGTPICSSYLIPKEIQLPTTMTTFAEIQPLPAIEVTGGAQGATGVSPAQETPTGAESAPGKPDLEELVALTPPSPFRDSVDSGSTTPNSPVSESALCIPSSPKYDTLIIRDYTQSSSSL
Assay: Functional calcium flux assay (FLIPR), antagonist evaluation against glutamate-evoked [Ca2+]i increase
Format: cell-based
Details: Table 2; HEK293 cells stably expressing recombinant rat mGluR5; 15 min incubation of test compound, then submaximal glutamate; read-out: IC50 (FLIPR assay)
readout.name: IC50

Which IC50 value belongs to Cc1cc(C#Cc2ccccn2)nn1-c1ccc(OC(F)(F)F)cc1 [Compound 136] ?
≤ 500 nM

Which IC50 value belongs to N#Cc1cc(F)cc(-n2ccc(C#Cc3ncccn3)n2)c1 [Compound 109] ?
≤ 500 nM

Which IC50 value belongs to Cc1cc(C#Cc2ccccn2)nn1-c1ccc(F)cc1 [Compound 126] ?
≤ 500 nM

Which IC50 value belongs to FC(F)(F)Oc1ccc(-n2ccc(C#Cc3cccnc3)n2)cc1 [Compound 121] ?
1000 to 5000 nM

Which IC50 value belongs to Cc1cc(C#Cc2ncccn2)nn1-c1ccc(OC(F)(F)F)cc1 [Compound 133] ?
1000 to 5000 nM

Which IC50 value belongs to Cc1cc(C#Cc2ccnc(Cl)c2)nn1-c1ccc(OC(F)(F)F)cc1 [Compound 135] ?
1000 to 5000 nM

Which IC50 value belongs to Cc1cn(-c2cc(F)cc(C#N)c2)nc1C#Cc1ccccn1 [Compound 59] ?
≤ 500 nM

Which IC50 value belongs to Fc1ccc(-n2ccc(C#Cc3ccccn3)n2)nc1 [Compound 67] ?
≤ 500 nM

Which IC50 value belongs to Cc1cc(C#Cc2cnccn2)nn1-c1cc(F)cc(C#N)c1 [Compound 103] ?
≤ 500 nM

Which IC50 value belongs to N#Cc1cc(F)cc(-n2ccc(C#Cc3cnccn3)n2)c1 [Compound 111] ?
≤ 500 nM

Which IC50 value belongs to Cc1cc(C#Cc2ncccn2)nn1-c1ccc(F)cc1 [Compound 128] ?
1000 to 5000 nM

Which IC50 value belongs to Cc1cc(C#Cc2cccc(Cl)c2)nn1-c1cc(F)cc(C#N)c1 [Compound 99] ?
≤ 500 nM

Hey, just so you know, these numbers are from patent US10941132B2.
